experimental.system: T1, human nerve growth factor (human, UniProt P01138 122-241)
T1 construct: Immobilised on CM5 chips for BIAcore, soluble in neuron survival assays; also called human NGF; hNGF
T1 sequence (P01138 122-241 limits assumed): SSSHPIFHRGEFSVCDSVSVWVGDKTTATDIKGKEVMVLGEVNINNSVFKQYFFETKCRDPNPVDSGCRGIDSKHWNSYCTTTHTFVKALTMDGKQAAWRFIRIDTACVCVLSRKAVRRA
assay.info: BIAcore SPR screen, Fab over immobilised human NGF; KD calculated from koff with kon 4e4 M-1s-1
pKd: −log10 of the molar value.
Overview of reported pKd across a group of binders:

binder	pKd
8L2-6D5 Fab with CDR H3 mutation S105T (Fab, V domains shown, See note of m8) VH: QVQLQESGPGLVKPSETLSLTCTVSGFSLIGYDINWIRQPPGKGLEWIGMIWGDGTTDYNSALKSRVTISKDTSKNQFSLKLSSVTAADTAVYYCARGGYYYGTTYYFDYWGQGTLVTVS VL: DIQMTQSPSSLSASVGDRVTITCRASQDISNHLNWYQQKPGKAPKLLIYYISRFHSGVPSRFSGSGSGTDFTFTISSLQPEDIATYYCQQSKTLPYTFGQGTKLEIKR	7.80
8L2-6D5 Fab with CDR H3 mutation T104S (Fab, V domains shown, See note of m8; also called T1045 (so in the source)) VH: QVQLQESGPGLVKPSETLSLTCTVSGFSLIGYDINWIRQPPGKGLEWIGMIWGDGTTDYNSALKSRVTISKDTSKNQFSLKLSSVTAADTAVYYCARGGYYYGSSYYFDYWGQGTLVTVS VL: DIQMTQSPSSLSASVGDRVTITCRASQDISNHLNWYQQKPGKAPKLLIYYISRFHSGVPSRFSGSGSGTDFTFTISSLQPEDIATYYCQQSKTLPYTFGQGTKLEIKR	7.26
